Consider the following compounds and their measured Plant response rating, Barley readings.
Tested on: barley
Test: Test B preemergence/postemergence greenhouse plant response rating 0 to 10
Format: in vivo, Hordeum vulgare
Settings: POSTEMERGENCE, Rate 200 g/ha; 0 to 10 scale

- substance_smiles: "Fc1cc(Cl)c(OCCCl)cc1-c1nn2c(c1Cl)CCCC2"
  Plant response rating, Barley: 5
- substance_smiles: "Clc1ccc(-c2nn3c(c2Cl)CCCC3)c(Cl)c1"
  Plant response rating, Barley: 4
- substance_smiles: "Clc1ccc(-c2nc3n(c2Cl)CCC=C3)c(Cl)c1"
  Plant response rating, Barley: 3

----------
Tested on: umbrella sedge
Test: Test C flood test plant response rating 0 to 100
Format: in vivo, Cyperus difformis
Settings: flood test species listed under POSTEMERGENCE, 62 g/ha, 0 to 100 scale

- molecule: "C#CCN1C(=O)COc2cc(F)c(-c3nn4c(c3Cl)CCCC4)cc21"
  tested_target: "umbrella sedge"
  Plant response rating Umbrella sedge: 80
- molecule: "C#CC(C)Oc1cc(-c2nn3c(c2Br)CCCC3)c(F)cc1Cl (stereo not drawn)"
  tested_target: "umbrella sedge"
  Plant response rating Umbrella sedge: 0
- molecule: "C=C(Cl)COc1cc(-c2nn3c(c2Cl)CCCC3)c(F)cc1Cl"
  tested_target: "umbrella sedge"
  Plant response rating Umbrella sedge: 10
- molecule: "CCN1C(=O)COc2cc(F)c(-c3nn4c(c3Cl)CCCC4)cc21"
  tested_target: "umbrella sedge"
  Plant response rating Umbrella sedge: 70
- molecule: "COCN1C(=O)COc2cc(F)c(-c3nn4c(c3Br)CCCC4)cc21"
  tested_target: "umbrella sedge"
  Plant response rating Umbrella sedge: 70
- molecule: "COc1cc(-c2nn3c(c2Cl)CCCC3)c(F)cc1Cl"
  tested_target: "umbrella sedge"
  Plant response rating Umbrella sedge: 90
- molecule: "CC(C)N1C(=O)COc2cc(F)c(-c3nn4c(c3Cl)CCCC4)cc21"
  tested_target: "umbrella sedge"
  Plant response rating Umbrella sedge: 80
- molecule: "CC(C)OC(=O)COc1cc(-c2nn3c(c2Cl)CCCC3)c(F)cc1Cl"
  tested_target: "umbrella sedge"
  Plant response rating Umbrella sedge: 60
- molecule: "COCN1C(=O)COc2cc(F)c(-c3nn4c(c3Cl)CCCC4)cc21"
  tested_target: "umbrella sedge"
  Plant response rating Umbrella sedge: 90
